Where these numbers come from: patent US20250084088A1

test system: RSV strain A2; assay: RSV Cellomics assay for RSV A2 antiviral activity (EC50-RSV-Hep2-96-Cellomics), Example Z; format: cell-based; conditions: human respiratory syncytial virus, HEp-2, 72 h; Hep2 cells infected with RSV strain A2, MOI=0.05, 3 days, RSV F protein immunofluorescence
property: EC50 (nM)
Express your answer in nM, writing the number without its unit.

Some molecules with recorded EC50:
Given the entry CCOC(=O)OC[C@@]1(C#N)O[C@@H](c2ccc3c(N)ncnn23)[C@H](OC(C)=O)[C@@H]1OC(C)=O [Compound 5] , report its measured EC50. 61500

I would be grateful if you could share the reported EC50 for N#C[C@]1(CO)O[C@@H](c2ccc3c(N)ncnn23)[C@H](O)[C@@H]1O [Compound 0, reference compound] . 9740

Bench note: what EC50 did CCOC(=O)OC[C@@]1(C#N)O[C@@H](c2ccc3c(N)ncnn23)[C@H](OC(=O)OCC)[C@@H]1OC(=O)OCC [Compound 6] show? 68600

Entry COC(=O)OC[C@@]1(C#N)O[C@@H](c2ccc3c(N)ncnn23)[C@H](OC(C)=O)[C@@H]1OC(C)=O [Compound 4] : reported EC50 = ? 54000

Record request: EC50 value, item CCC(=O)O[C@H]1[C@H](c2ccc3c(N)ncnn23)O[C@](C#N)(COC(=O)OCC(C)C)[C@H]1OC(=O)CC [Compound 2] 49200

Record request: EC50 value, item CC(=O)O[C@H]1[C@H](c2ccc3c(N)ncnn23)O[C@](C#N)(COC(=O)OC(C)C)[C@H]1OC(C)=O [Compound 3] 100000

Attention now shifts to the item below.
If you can, please state the reported EC50 value of CC(=O)O[C@H]1[C@H](c2ccc3c(N)ncnn23)O[C@](C#N)(COC(=O)OCC(C)C)[C@H]1OC(C)=O [Compound 1] . 45900
